# reported %Inh; entries follow
System: NDR2
MEASUREMENT CONTEXT: concentration: 1 μM, replicates: in singlicate; n = 1;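 further: KINOMEscan kinase panel screen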
Please reply with the bare figure in % and do not write the unit itself.

Some molecules with known %Inh results, for comparison:
COc1ccc(-n2cnc3c(N)ncnc32)cc1 | 0
CCn1c(-c2ccoc2)nc2cnccc21 | 0
CCc1ccc(-c2ccc3c(c2)-c2nn(C)cc2S(=O)(=O)N3C)cc1 | 0
Nc1n[nH]c2nnc(-c3ccccc3)c(-c3ccccc3)c12 | 10

Req: Give the reported %Inh for this molecule. COc1ccc(Nc2nccc(N3CCC(NS(=O)(=O)c4ccc(NC(C)=O)cc4)C3)n2)cc1 (centres unmarked)
Resp: 0

====

System: RPS6KA5(Kin.Dom.1-N-terminal)
MEASUREMENT CONTEXT: concentration: 1 μM, replicates: in singlicate; n = 1
OUTCOME MEASURE: %Inh
Reply with a number, then the unit it belongs to.

CCC(=O)c1c(-c2ccccc2)c2cc(Cl)ccc2c(=O)n1Cc1ccc(C(=O)O)cc1 | 0%
COc1cc2ncn(-c3cc(OCc4ccc(S(C)(=O)=O)cc4)c(C(N)=O)s3)c2cc1OC | 0%
CN1C(=O)C(Nc2cc(Cl)c(O)c(Cl)c2)=C(c2ccc(Cl)cc2)C1=O | 0%
COc1ccc(-c2cc3c(C)nc(N)nc3n([C@H]3CC[C@H](OCCO)CC3)c2=O)cn1 | 0%
Nc1ncnc2c1ncn2-c1cccc(F)c1 | 0%
CCC(=O)c1c(-c2ccccc2)c2cc(Cl)ccc2c(=O)n1Cc1cc(S(C)(=O)=O)n(CC(N)=O)n1 | 30%

Req: State the measured %Inh (RPS6KA5(Kin.Dom.1-N-terminal)) of COc1cc(OC)cc(-c2cc3cnc(N)nc3nc2NC(=O)NC(C)(C)C)c1
Resp: 5%

Req: State the measured %Inh (RPS6KA5(Kin.Dom.1-N-terminal)) of O=C(NCCNc1ccnc(Nc2ccc(F)cc2)n1)Nc1ccc2c(c1)OCO2
Resp: 9%

Req: State the measured %Inh (RPS6KA5(Kin.Dom.1-N-terminal)) of CCC(=O)c1c(-c2ccccc2)c2cc(Cl)ccc2c(=O)n1Cc1cc(S(C)(=O)=O)n(CCC(C)(C)O)n1
Resp: 20%

====

# reported %Inh; entries follow
Test system: EPHB4
MEASUREMENT CONTEXT: concentration: 1 μM, replicates: in singlicate; n = 1
Please reply with the bare figure in % and do not write the unit itself.

Cc1cccc(-c2cc(-c3c[nH]nc3-c3ccccn3)ccn2)c1 | 22
O=C(Nc1n[nH]c2cc(-c3ccccc3F)ccc12)C1CC1 | 5
COc1cc2ncn(-c3cc(OCc4ccncc4)c(C(N)=O)s3)c2cc1OC | 10

Let us move to another entry and its %Inh.
Req: Give the reported %Inh for this molecule. CCCC(=O)Nc1n[nH]c2ncc(-c3cccc4ccccc34)cc12
Resp: 0

====

# reported %Inh; entries follow
System: MYLK4
MEASUREMENT CONTEXT: concentration: 1 μM, replicates: in singlicate; n = 1
Reply with a number, then the unit it belongs to.

Some molecules with known %Inh results, for comparison:
OCCCNc1nccc(-c2c(-c3cccc(C(F)(F)F)c3)nn3cc(C(F)(F)F)ccc23)n1 [GW630813] | 0%
COc1ccc(CNC(=O)NC2CCN(c3ccnc(Nc4ccc(F)cc4)n3)C2)cc1 (stereo not drawn) [GSK1379706] | 17%
COc1cc2ncn(-c3cc(OCc4ccncc4)c(C(N)=O)s3)c2cc1OC [GSK336313] | 36%
COc1cc(Nc2nccc(N3CCC(NC(=O)C4COc5ccccc5O4)C3)n2)cc(OC)c1OC (stereo not drawn) [GSK1379761] | 0%
CCn1c(-c2ccoc2)nc2cnccc21 [SB-733887] | 0%
CCC(=O)c1c(-c2ccccc2)c2cc(Cl)ccc2c(=O)n1Cc1cc(S(C)(=O)=O)n(CC(F)F)n1 | 1%
COc1cccc(C2=C(N(C)c3ccccc3)C(=O)NC2=O)c1 [SB-334865] | 0%
CCCNC(=O)Nc1ccc(Oc2ncnc3ccn(C)c23)cc1 | 21%

Req: Give the reported %Inh for this molecule. O=C1NC(=O)C(c2ccccc2)=C1Nc1cccc(O)c1 [SB-390534]
Resp: 15%

====

# reported %Inh; entries follow
System: PRKD1
MEASUREMENT CONTEXT: concentration: 1 μM, replicates: in singlicate; n = 1
Reply with a number, then the unit it belongs to.

Some compounds with known %Inh results, for comparison:
COc1cc2nccc(Nc3cccc(Oc4ccccc4)c3)c2cc1OC.Cl | 0%
Nc1ncnc2c1ncn2-c1cccc2ccccc12 | 0%
COC(=O)c1c(-c2ccccc2)c2cc(Br)ccc2c(=O)n1Cc1ccc(S(C)(=O)=O)cc1 | 0%
COc1cc(Nc2ccnc3ccc(C(F)(F)F)cc23)cc(OC)c1OC | 6%

Req: Give the reported %Inh for this compound. CCn1c(-c2nonc2N)nc2ccccc21
Resp: 0%

Req: Give the reported %Inh for this compound. COc1cc(Nc2nccc(N3CCC(NC(=O)C(C)c4ccc(Cl)cc4)C3)n2)cc(OC)c1OC (stereo not drawn)
Resp: 0%

Req: Give the reported %Inh for this compound. CCCNC(=O)Nc1ccc(Oc2ncnc3ccn(C)c23)cc1
Resp: 0%

Req: Give the reported %Inh for this compound. CC(C)(C)c1ccc(C(=O)Nc2cn3cc(-c4ccccc4)ccc3n2)cc1
Resp: 8%

Req: Give the reported %Inh for this compound. O=c1cc(N2CCOCC2)nc2n(Cc3ccc(F)c(Cl)c3)ccn12
Resp: 0%

====

System: MAP3K3
MEASUREMENT CONTEXT: concentration: 1 μM, replicates: in singlicate; n = 1
OUTCOME MEASURE: %Inh (%)
Please reply with the bare figure in % and do not write the unit itself.

Some compounds with known %Inh results, for comparison:
O=C(Nc1n[nH]c2nc(-c3ccccc3)c(Cl)cc12)C1CC1 | 33
Nc1n[nH]c2ncc(-c3ccccc3)cc12 | 0
CCc1ccc(-c2ccc3c(c2)-c2nn(C)cc2S(=O)(=O)N3C)cc1 | 0
COc1ccc(-n2cnc3c(N)ncnc32)cc1 | 8
Nc1nccc2scc(-c3ccc4c(c3)CCN4C(=O)Cc3ccccc3)c12 | 0
COC(=O)c1c(-c2ccccc2)c2cc(Br)ccc2c(=O)n1Cc1ccc(NC(=O)CCC(=O)O)cc1 | 18
COc1ccc(Nc2nccc(N3CCC(NS(=O)(=O)c4ccc(NC(C)=O)cc4)C3)n2)cc1 (stereo not drawn) | 0
Nc1ncnc2c1ncn2-c1cccc2ccccc12 | 0

Let us move to another entry and its %Inh.
Req: Give the reported %Inh for this compound. Cc1cc(Nc2nc(-c3cccc(C)n3)nc3ccccc23)ccn1
Resp: 0

====

Tested on: CDK4-cyclinD3
MEASUREMENT CONTEXT: concentration: 1 μM, replicates: in singlicate; n = 1
# reported %Inh; entries follow
Please reply with the bare figure in % and do not write the unit itself.

OCCCNc1nccc(-c2c(-c3cccc(C(F)(F)F)c3)nn3cc(C(F)(F)F)ccc23)n1 [GW630813] | 0
Cc1c(Cn2c(C)nn3c(=O)cc(N4CCO[C@H](C)C4)nc23)cccc1C(F)(F)F [GSK2373690] | 0
CCc1ccc(-c2ccc3c(c2)-c2nn(C)cc2S(=O)(=O)N3C)cc1 | 0
CCC(=O)c1c(-c2ccccc2)c2cc(Cl)ccc2c(=O)n1Cc1cc(S(C)(=O)=O)n(CCC(C)(C)O)n1 | 20
CC(C)(C)c1ccc(C(=O)Nc2cn3cc(-c4ccccc4)ccc3n2)cc1 | 0

Req: Give the reported %Inh for this compound. CCCNC(=O)Nc1ccc(Oc2ncnc3ccn(C)c23)cc1
Resp: 0

Req: Give the reported %Inh for this compound. COc1cc2ncn(-c3cc(OCc4ccncc4Br)c(C(N)=O)s3)c2cc1OC [GW854278]
Resp: 0

Req: Give the reported %Inh for this compound. O=C(Nc1n[nH]c2cc(-c3ccccc3F)ccc12)C1CC1 [SB-733371]
Resp: 0

Req: Give the reported %Inh for this compound. COC(=O)c1c(-c2ccccc2)c2cc(Br)ccc2c(=O)n1Cc1ccc(NC(=O)CCC(=O)O)cc1
Resp: 0

Req: Give the reported %Inh for this compound. CCS(=O)(=O)c1ccc(OC)c(Nc2ncc(-c3ccc(F)cc3)o2)c1.Cl [GW591947]
Resp: 0

Req: Give the reported %Inh for this compound. COc1cc(Nc2nccc(N3CCC(NC(=O)C(C)c4ccc(Cl)cc4)C3)n2)cc(OC)c1OC (stereo not shown) [GSK1379757]
Resp: 0

Req: Give the reported %Inh for this compound. Cc1cccc(-c2nc(Nc3ccc4c(cnn4C)c3)c3ccccc3n2)n1 [GW876731]
Resp: 0

Req: Give the reported %Inh for this compound. COc1ccc(CNC(=O)NC2CCN(c3ccnc(Nc4ccc(F)cc4)n3)C2)cc1 (stereo not shown) [GSK1379706]
Resp: 0

Req: Give the reported %Inh for this compound. CCn1c(-c2ccoc2)nc2cnccc21 [SB-733887]
Resp: 29
